Target: Endothelin-converting enzyme 1 (Homo sapiens)
Sequence (P42892 whole entry): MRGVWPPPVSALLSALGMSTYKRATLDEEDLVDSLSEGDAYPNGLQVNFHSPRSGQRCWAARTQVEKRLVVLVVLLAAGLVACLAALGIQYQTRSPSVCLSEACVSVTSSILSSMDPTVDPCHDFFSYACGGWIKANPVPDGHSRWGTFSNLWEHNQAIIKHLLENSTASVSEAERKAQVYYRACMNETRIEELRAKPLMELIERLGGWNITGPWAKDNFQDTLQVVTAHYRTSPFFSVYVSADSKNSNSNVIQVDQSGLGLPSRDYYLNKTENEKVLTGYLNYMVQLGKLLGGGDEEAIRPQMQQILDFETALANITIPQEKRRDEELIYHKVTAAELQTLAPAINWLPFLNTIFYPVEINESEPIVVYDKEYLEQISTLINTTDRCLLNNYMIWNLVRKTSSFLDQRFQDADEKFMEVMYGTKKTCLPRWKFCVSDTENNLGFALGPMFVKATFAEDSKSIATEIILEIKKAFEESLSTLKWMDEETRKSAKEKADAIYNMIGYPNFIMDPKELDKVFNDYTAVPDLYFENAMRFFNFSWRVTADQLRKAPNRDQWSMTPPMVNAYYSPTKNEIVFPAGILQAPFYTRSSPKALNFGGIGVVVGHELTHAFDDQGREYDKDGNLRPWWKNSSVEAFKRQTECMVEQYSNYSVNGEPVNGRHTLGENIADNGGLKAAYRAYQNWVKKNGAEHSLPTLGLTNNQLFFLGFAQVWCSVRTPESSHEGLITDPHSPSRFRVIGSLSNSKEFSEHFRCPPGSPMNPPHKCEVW
Several reports have described IC50 for Endothelin-converting enzyme 1 (Homo sapiens); a selection of those results is presented here.

>  <molecule>
CC(C)[C@H](S)C(=O)NC1(C(=O)NC(Cc2ccc(-c3cncnc3)cc2)C(=O)O)CCCC1 (stereo partly drawn)

>  <IC50>
120 nM

$$$$
>  <molecule>
O=S(=O)(c1ccc2ccccc2c1)N1C[C@H](S)C[C@H]1c1nnc(SCC2CC2)n1-c1ccccc1

>  <IC50>
700 nM

$$$$
>  <molecule>
CC(C)C[C@H](C(=O)NO)C(=O)N[C@@H](C)C(=O)NCC(N)=O

>  <IC50>
11 nM

$$$$
>  <molecule>
CC(C)C(C(=O)NO)C(=O)NC(Cc1c[nH]c2ccccc12)C(N)=O (stereo not drawn)

>  <IC50>
1.2 nM

$$$$
>  <molecule>
CC(C)[C@H](S)C(=O)NC1(C(=O)NC(Cc2ccc(-c3cccc(N)c3)nc2)C(=O)O)CCCC1 (stereo partly drawn)

>  <IC50>
64 nM

$$$$

Batch lookup, IC50 per entry.
1. CSc1nnc([C@@H]2C[C@@H](S)CN2S(=O)(=O)c2ccc(F)cc2)n1-c1ccccc1
2. CSc1nnc([C@@H]2C[C@@H](S)CN2S(=O)(=O)c2ccc3ccccc3c2)n1-c1ccc(C(F)(F)F)cc1
3. O=C1N[C@H](C(=O)O)CCCCCCc2cccc(c2)CC1CS (stereo partly drawn)
4. CCCCOC(=O)N1C[C@H](S)C[C@H]1c1nnc(SC)n1-c1ccccc1
5. CC(C)[C@H](S)C(=O)NC1(C(=O)N[C@@H](Cc2ccc(-c3ccccc3)cc2)C(=O)O)CCCC1
6. CCCSc1nnc([C@@H]2C[C@@H](S)CN2S(=O)(=O)c2ccc3ccccc3c2)n1-c1ccccc1
7. CSc1nnc([C@@H]2C[C@@H](S)CN2S(C)(=O)=O)n1-c1ccccc1

8950 nM
360 nM
620 nM
2700 nM
77 nM
280 nM
15500 nM

Batch lookup, IC50 per entry.
1. CC(C)C(CC(N)=O)C(=O)NCCC(=O)O (stereo not drawn)
2. CSc1nnc([C@@H]2C[C@@H](S)CN2S(=O)(=O)c2ccc(Cl)cc2)n1-c1ccccc1
3. CSc1nnc([C@@H]2C[C@@H](S)CN2S(=O)(=O)c2ccc3ccccc3c2)n1-c1c(F)c(F)cc(F)c1F
4. CSc1nnc([C@@H]2C[C@@H](S)CN2S(=O)(=O)c2ccc3ccccc3c2)n1Cc1ccc(F)cc1
5. CC(C)C(CNO)C(=O)NC(Cc1c[nH]c2ccccc12)C(=O)O (stereo not drawn)
6. CC(C)C(C(=O)NO)C(=O)NC(Cc1c[nH]c2ccccc12)C(=O)O (stereo not drawn)
7. CCCc1ccc(S(=O)(=O)N2C[C@H](S)C[C@H]2c2nnc(SC)n2-c2ccccc2)cc1

1: 6500 nM; 2: 1200 nM; 3: 250 nM; 4: 150 nM; 5: 500 nM; 6: 0.2 nM; 7: 1200 nM
